Entries annotated with measured SERPINC1 mRNA, Mouse Heps, 10 uM
# Test system: SERPINC1 mRNA
# ASSAY_COMMENT: Quantitative PCR of SERPINC1 mRNA in mouse hepatocytes treated with compounds
# Format: cell-based
# MEASUREMENT_PARAMETERS: compound 10 uM

[[record]]
sample_smiles = "CC(=O)NCC(=O)N1[C@@H]2CC[C@H]1c1ccc(Nc3ncc(C(F)(F)F)c(NC4CCC4)n3)cc12"
measurement = 1.86

[[record]]
sample_smiles = "COc1cccc2cc(-c3nc([C@H]4CC[C@H](C(=O)O)CC4)n4ncnc(N)c34)[nH]c12"
measurement = 2.36

[[record]]
sample_smiles = "CCNC(=O)Nc1ccc(-c2nc(N3CCOC[C@@H]3C)c3c(n2)C(C)(C)S(=O)(=O)C3)cc1"
measurement = 2.5

[[record]]
sample_smiles = "COc1cc2c(Oc3ccc(NC(=O)C4(C(=O)Nc5ccc(F)cc5)CC4)cc3F)ccnc2cc1OCCCN1CCOCC1"
measurement = 0.93

[[record]]
sample_smiles = "COc1ccc(-c2ccc3c(N4CCOC[C@@H]4C)nc(N4CCOC[C@@H]4C)nc3n2)cc1CO"
measurement = 3.4


So what does the record say about SERPINC1 mRNA, Mouse Heps, 10 uM for "CCn1c(=O)c(-c2cc[nH]n2)cc2c(C)nc(N)nc21" ?
2.4

Follow-up item: "O=C(Nc1c[nH]nc1-c1nc2ccc(CN3CCOCC3)cc2[nH]1)NC1CC1"
1.81

Follow-up item: "CN1C/C=C/CCOc2cccc(c2)-c2ccnc(n2)Nc2cccc(c2)C1"
1.85

Follow-up item: "O=C1CCc2c(Oc3ccc4c(c3)[C@@H]3[C@H](O4)[C@H]3c3nc4cc(C(F)(F)F)ccc4[nH]3)ccnc2N1"
1.1

* * *

# Test system: ANGPTL3
# ASSAY_COMMENT: RNA-seq of ANGPTL3 expression in compound-treated primary human hepatocytes
# Type: cell-based
# MEASUREMENT_PARAMETERS: additional compounds (Table 13), linear fold change
We'd kindly ask you to apply these ANGPTL3-LINEAR FOLD CHANGE classes: bucket A (below 0.3), bucket B (0.3 to below 0.4), bucket C (0.4 or more)

Observe how each entry below is paired with its result.
[[record]]
molecule = "NC(=O)c1ccc(N(C(N)=O)c2c(F)cccc2F)nc1-c1ccc(F)cc1F [VX-702]"
class = "bucket C"

[[record]]
molecule = "O=C1NC(=O)/C(=C/c2ccc3nccc(-c4ccncc4)c3c2)S1 [GSK1059615]"
class = "bucket A"


Could you now consider this next molecule?
Pick a category. Item: O=C1CCc2c(Oc3ccc4c(c3)[C@@H]3[C@H](O4)[C@H]3c3nc4ccc(C(F)(F)F)cc4[nH]3)ccnc2N1 [Lifirafenib (BGB-283), Lifirafenib]
bucket B

* * *

Entries annotated with measured ANGPTL3 Fold Change (Log2)
# System: ANGPTL3
# ASSAY_COMMENT: RNA-seq of ANGPTL3 expression in compound-treated primary human hepatocytes
# Assay type: cell-based
# MEASUREMENT_PARAMETERS: primary human hepatocytes (Table 12)

Some entries whose results are on file:
[[record]]
compound = "NS(=O)(=O)C#Cc1ccccc1"
measured_property = "ANGPTL3 Fold Change (Log2)"
measurement = "−0.46 Log2"

[[record]]
compound = "C=CC(=O)Nc1cccc(Nc2nc(Nc3ccc(N4CCN(C(C)=O)CC4)cc3OC)ncc2C(F)(F)F)c1 [CO-1686 (Rociletinib), Rociletinib]"
measured_property = "ANGPTL3 Fold Change (Log2)"
measurement = "−0.67 Log2"

[[record]]
compound = "COCCOc1ccc(N2CCN(CCn3ncc4c3nc(N)n3nc(-c5ccco5)nc43)CC2)cc1"
measured_property = "ANGPTL3 Fold Change (Log2)"
measurement = "−0.73 Log2"

[[record]]
compound = "CN1CCC(CNc2ccc3ncc(-c4cccc(OC(F)(F)F)c4)n3n2)CC1"
measured_property = "ANGPTL3 Fold Change (Log2)"
measurement = "−0.52 Log2"

[[record]]
compound = "CNC(=O)Nc1ccc(-c2nc(N3CC4CCC(C3)O4)c3cnn(C4CCC5(CC4)OCCO5)c3n2)cc1"
measured_property = "ANGPTL3 Fold Change (Log2)"
measurement = "−0.42 Log2"


Now for another entry.
So what does the record say about ANGPTL3 Fold Change (Log2) for "O=c1cc(N2CCOCC2)oc2c(-c3ccccc3)cccc12" ?
0 Log2

* * *

# Tested on: JAG1
# ASSAY_COMMENT: RNA-seq of JAG1 expression in compound-treated primary human hepatocytes
# Format: cell-based
# MEASUREMENT_PARAMETERS: primary human hepatocytes
MEASURED_PROPERTY: JAG1 Fold Change (Log2)
Just the number in Log2, nothing appended.

Some entries whose results are on file:
[[record]]
sample_smiles = "Cc1ccc(C(=O)Nc2ccc(Oc3cc4cnn(C)c4cc3-c3cn[nH]c3)c(F)c2)c(=O)n1-c1ccc(F)cc1"
measured_property = "JAG1 Fold Change (Log2)"
unit_descriptor = "Log2"
measurement = 0.76

[[record]]
sample_smiles = "c1ccc2c(-c3cnn4cc(-c5ccc(N6CCNCC6)cc5)cnc34)ccnc2c1"
measured_property = "JAG1 Fold Change (Log2)"
unit_descriptor = "Log2"
measurement = 2.07

[[record]]
sample_smiles = "S=C(NCc1ccc2c(c1)OCO2)N1CCN(c2ncnc3c2oc2ccccc23)CC1"
measured_property = "JAG1 Fold Change (Log2)"
unit_descriptor = "Log2"
measurement = 0.74


Now for another entry.
So what does the record say about JAG1 Fold Change (Log2) for "CCOC(=O)N1c2ccc(C(F)(F)F)cc2[C@@H](N(Cc2cc(C(F)(F)F)cc(C(F)(F)F)c2)C(=O)OC)C[C@H]1CC" ?
0.68

* * *

# Test system: SLC37A4
# ASSAY_COMMENT: RNA-seq of SLC37A4 expression in compound-treated primary human hepatocytes
# Assay type: cell-based
MEASURED_PROPERTY: SLC37A4 Fold Change (Log2)
Just the number in Log2, nothing appended.

So what does the record say about SLC37A4 Fold Change (Log2) for "CS[C@H]1SC[C@H]2C(=O)N(C)[C@@H](C(C)C)C(=O)OC[C@@H](NC(=O)c3cnc4ccccc4n3)C(=O)N[C@@H](C)C(=O)N(C)[C@@H]1C(=O)N(C)[C@@H](C(C)C)C(=O)OC[C@@H](NC(=O)c1cnc3ccccc3n1)C(=O)N[C@@H](C)C(=O)N2C" ?
1.59

Follow-up item: [Cl][Co][Cl] [Cobalt chloride]
1.09

Follow-up item: COc1cc(Nc2ncc(F)c(Nc3ccc4c(n3)N(COP(=O)(O)O)C(=O)C(C)(C)O4)n2)cc(OC)c1OC [R788 (fostamatinib disodium hexahydrate), fostamatinib disodium hexahydrate]
0.74

Follow-up item: "C[C@]12C=CC(=O)C=C1CC[C@@H]1[C@@H]2C(=O)C[C@@]2(C)[C@H]1CC[C@]2(O)C(=O)CO"
1.18

Follow-up item: "COCCOc1ccc2c(c1)ncn2-c1ccc2cccc(N3CCC(N)CC3)c2n1"
1.17

Follow-up item: O=C1CCC(N2C(=O)c3ccccc3C2=O)C(=O)N1 (stereo not drawn) [Thalidomide]
0.64

Follow-up item: "S=C(NCc1ccc2c(c1)OCO2)N1CCN(c2ncnc3c2oc2ccccc23)CC1"
0.97

Follow-up item: "C[C@]12C[C@H](O)[C@H]3[C@@H](CCC4=CC(=O)CC[C@@]43C)[C@@H]1CC[C@@H]2C(=O)CO"
0.73

Follow-up item: "C[C@@H]1C[C@H]2[C@@H]3CCC4=CC(=O)C=C[C@]4(C)[C@@]3(F)[C@@H](O)C[C@]2(C)[C@@]1(O)C(=O)CO"
0.66

* * *

# Test system: ANGPTL3
# ASSAY_COMMENT: RNA-seq of ANGPTL3 expression in compound-treated primary human hepatocytes
# Assay type: cell-based
# MEASUREMENT_PARAMETERS: additional compounds (Table 13), linear fold change
Structures can show the parent of a compound that is named as a salt.
MEASURED_PROPERTY: ANGPTL3-LINEAR FOLD CHANGE
Simply state the number, no unit and no words.

[[record]]
molecule = "[H]/N=C(\\N/C(=N/[H])Nc1ccc(Cl)cc1)NC(C)C [Proguanil]"
measurement = 0.3536

[[record]]
molecule = "CNC1CCC(N(Cc2cccc(-c3ccncc3)c2)C(=O)c2sc3ccccc3c2Cl)CC1 (stereo not shown) [Smoothened Agonist]"
measurement = 0.3035


Report ANGPTL3-LINEAR FOLD CHANGE for C=C1/C(=C\C=C2/CCC[C@]3(C)[C@@H]([C@H](C)CCCC(C)(C)O)CC[C@@H]23)C[C@@H](O)C[C@@H]1O [Calcitriol] tested on ANGPTL3.
0.483

Follow-up item: COc1cc(N)c(Cl)cc1C(=O)NC1CCNCC1OC (stereo not shown) [NORCISAPRIDE HYDROCHLORIDE]
0.3763

Follow-up item: C[C@@H](NCCCc1cccc(C(F)(F)F)c1)c1cccc2ccccc12 [Cinacalcet HCl]
0.3789

Follow-up item: CCn1c(=O)c(-c2cc[nH]n2)cc2c(C)nc(N)nc21 [Voxtalisib (XL765, SAR245409), Voxtalisib]
0.4175

Follow-up item: O=Cc1c2[nH]c3ccccc3c2cc2[nH]c3ccccc3c12 [FICZ]
0.3231

Follow-up item: COCCCC/C(=N\OCCN)c1ccc(C(F)(F)F)cc1 [Fluvoxamine maleate]
0.3231

Follow-up item: COc1ccc(-c2cc3c(C)nc(N)nc3n([C@H]3CC[C@H](OCCO)CC3)c2=O)cn1 [PF-04691502]
0.4506

Follow-up item: CN1CCN(CCCN2c3ccccc3Sc3ccc(C(F)(F)F)cc32)CC1 [TFP]
0.2832

Follow-up item: CCN(CC)CCN(Cc1ccc(-c2ccc(C(F)(F)F)cc2)cc1)C(=O)Cn1c(SCc2ccc(F)cc2)nc(=O)c2c1CCC2 [Darapladib]
0.4569

Follow-up item: CCN1CCN(c2ccc(Nc3cc(N(C)C(=O)Nc4c(Cl)c(OC)cc(OC)c4Cl)ncn3)cc2)CC1 [BGJ398]
0.3368

Follow-up item: CCC(C)(C)C(=O)O[C@H]1C[C@@H](C)C=C2C=C[C@H](C)[C@H](CC[C@@H]3C[C@@H](O)CC(=O)O3)[C@H]21 [Simvastatin]
0.2588

Follow-up item: C=CC(=O)Nc1cccc(Oc2nc(Nc3ccc(N4CCN(C)CC4)cc3)nc3ccsc23)c1 [Olmutinib (HM61713, BI 1482694), Olmutinib]
0.3057

Follow-up item: COc1cc(C)c(/C=C/C(C)=C/C=C/C(C)=C/C(=O)O)c(C)c1C [Acitretin]
0.4763

Follow-up item: O=C(NCCCn1ccnc1)c1cc(-c2ccco2)on1 [SKL2001]
0.4323
